RECORDED_ENDPOINT: IC50 (µM)
# number only, unit µM dropped from output

In: Form field: IC50 recorded for COC(=O)[C@H](Cc1ccccc1)NC(=O)[C@H](CC(C)C)NC(=O)[C@@H](O)CN with UniProtKB P08253 (enter value)
Sequence (P08253 whole entry): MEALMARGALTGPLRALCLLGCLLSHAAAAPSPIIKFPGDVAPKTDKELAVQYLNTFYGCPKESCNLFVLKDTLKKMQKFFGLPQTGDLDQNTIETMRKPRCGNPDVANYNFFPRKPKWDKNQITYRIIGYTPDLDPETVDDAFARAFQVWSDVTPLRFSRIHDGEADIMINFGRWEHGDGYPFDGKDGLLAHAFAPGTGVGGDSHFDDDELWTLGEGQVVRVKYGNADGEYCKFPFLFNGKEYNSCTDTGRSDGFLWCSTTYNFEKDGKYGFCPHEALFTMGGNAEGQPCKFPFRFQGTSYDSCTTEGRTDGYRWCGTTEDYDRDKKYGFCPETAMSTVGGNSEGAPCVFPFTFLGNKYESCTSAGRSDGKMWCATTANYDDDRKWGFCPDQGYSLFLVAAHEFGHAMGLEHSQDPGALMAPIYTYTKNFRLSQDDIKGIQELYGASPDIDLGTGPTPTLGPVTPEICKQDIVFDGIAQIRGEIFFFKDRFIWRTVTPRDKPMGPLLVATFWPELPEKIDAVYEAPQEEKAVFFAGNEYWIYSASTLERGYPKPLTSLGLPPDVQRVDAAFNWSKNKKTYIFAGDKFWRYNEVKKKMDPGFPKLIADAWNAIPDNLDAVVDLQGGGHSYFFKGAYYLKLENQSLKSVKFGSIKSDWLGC
Out: 126

In: Form field: IC50 recorded for CC(C)C[C@H](NC(=O)[C@@H](O)CN)C(=O)O with UniProtKB P08253 (enter value)
Out: 364

In: Form field: IC50 recorded for CC(C)C[C@H](NC(=O)[C@@H](O)[C@H](N)Cc1ccccc1)C(=O)O with UniProtKB P08253 (enter value)
Out: 167

In: Form field: IC50 recorded for NC[C@H](O)C(=O)N[C@@H](Cc1ccccc1)C(=O)OCc1ccccc1 with UniProtKB P08253 (enter value)
Out: 329

---

Form: system (Aminopeptidase N (Sus scrofa, UniProt P15145)), quantity (IC50), values below.
Number first, unit second.

In: Returns the measured IC50 for the input compound. Input: NC[C@H](O)C(=O)N[C@@H](Cc1ccccc1)C(=O)OCc1ccccc1
Out: 99.5 µM

In: Returns the measured IC50 for the input compound. Input: COC(=O)[C@H](CC(C)C)NC(=O)[C@@H](O)CN
Out: 229 µM

In: Returns the measured IC50 for the input compound. Input: CC(C)C[C@H](NC(=O)[C@@H](O)CN)C(=O)OCc1ccccc1
Out: 195 µM

In: Returns the measured IC50 for the input compound. Input: CC(C)C[C@H](NC(=O)[C@H](Cc1ccccc1)NC(=O)[C@@H](O)CN)C(=O)O
Out: 12.2 µM

In: Returns the measured IC50 for the input compound. Input: COC(=O)[C@H](Cc1ccccc1)NC(=O)[C@H](CC(C)C)NC(=O)[C@@H](O)CN
Out: 140 µM

In: Returns the measured IC50 for the input compound. Input: COC(=O)[C@H](Cc1ccccc1)NC(=O)[C@@H](O)CN
Out: 302 µM

In: Returns the measured IC50 for the input compound. Input: NC[C@H](O)C(=O)N[C@@H](Cc1ccccc1)C(=O)O
Out: 249 µM

Origin of the recorded values: BindingDB's records for doi:10.3109/14756361003698147
